assay: chemical genetic growth profiling, strain panel (AID 1159580);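 also: tested at 20 µM; growth read once vehicle control cultures reached saturation at 30 °C; lower values mean less growth of the strain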; settings: S. cerevisiae deletion strains, growth OD, locus YHR027C, strain rpn1
Out of some 5,500 compounds screened, about 2,000 (36%) were called active. About 18% were inconclusive and are not listed. Rule as the data show it: active = normalized growth mostly below about 0.91 (no sharp cut-off); inconclusive = no clear call, values can overlap the other calls; inactive = mostly above about 0.92. Some of the results follow.
Outcome codes: active, inactive

{"compound": "CN(C)[C@@H]1C(=O)C(C(N)=O)=C(O)[C@@]2(O)C(=O)C3=C(O)c4c(O)ccc(Cl)c4[C@@H](O)[C@H]3C[C@@H]12", "discrete label": "inactive"}
{"compound": "C[C@H](CCC(=O)O)[C@H]1CCC2C3C(=O)CC4CC(=O)CC[C@]4(C)C3CC(=O)[C@@]21C (some centres undefined)", "discrete label": "inactive"}
{"compound": "COC(=O)c1c(OC)cc2c(c1C)Oc1c(Cl)c(OC(C)=O)c(Cl)c(C)c1C(=O)O2", "discrete label": "inactive"}
{"compound": "CCN1CCN(C(=O)NC(C(=O)N[C@@H]2C(=O)N3[C@@H]2SC(C)(C)[C@@H]3C(=O)O)c2ccccc2)C(=O)C1=O (some centres undefined)", "discrete label": "inactive"}
{"compound": "CC(C)c1ccc2c(c1)CCC1C(C)(C(N)=O)CCCC21C (centres undefined)", "discrete label": "inactive"}
{"compound": "CC(N=C(NC#N)Nc1ccncc1)C(C)(C)C (centres undefined)", "discrete label": "inactive"}
{"compound": "CC1(C)CC2C1CC[C@]1(CBr)CCC3C(CC(=O)O)C(=O)O[C@@]32C1 (some centres undefined)", "discrete label": "inactive"}
{"compound": "COC(=O)c1c(C)c2c(c(C)c1O)OC(=O)c1c(C)c(Cl)c(O)c(Cl)c1O2", "discrete label": "inactive"}
{"compound": "CC1=CCCC2C1(C)CCC(C)C2(C)CC/C(C)=C/C[n+]1cn(C)c2c(N)ncnc21 (centres undefined)", "discrete label": "inactive"}
{"compound": "COC1CC2CCC(C)C(O)(O2)C(=O)C(=O)N2CCCCC2C(=O)OC(C(C)CC2CCC(O)C(OC)C2)CC(=O)C(C)/C=C(\\C)C(O)C(OC)C(=O)C(C)CC(C)/C=C/C=C/C=C/1C (centres undefined)", "discrete label": "active"}
{"compound": "NC1=NCCN1CC(=O)O", "discrete label": "inactive"}
{"compound": "CCCc1cc(=O)[nH]c(=S)[nH]1", "discrete label": "inactive"}
{"compound": "COc1ccc2cc(CCC(C)=O)ccc2c1", "discrete label": "inactive"}
{"compound": "CC(C)=CCc1c2c(c3occ(-c4ccc(O)c(O)c4)c(=O)c3c1O)C=CC(C)(C)O2", "discrete label": "inactive"}
{"compound": "CC(=O)O[C@@H]1CC2C(C)(C)C(=O)C=C[C@]2(C)C2CC[C@]3(C)C(=CC(=O)O[C@H]3c3ccoc3)[C@@]21C (some centres undefined)", "discrete label": "inactive"}
{"compound": "OC[C@H]1O[C@@H](O[C@H]2[C@H](O)[C@@H](O)[C@@H](O)O[C@@H]2CO)[C@H](O)[C@@H](O)[C@@H]1O", "discrete label": "inactive"}
{"compound": "CC(=O)N[C@@H](Cc1c[nH]c2ccccc12)C(N)=O", "discrete label": "inactive"}
{"compound": "Cc1c(C)c2c(c(C)c1O)CCC(C)(CCCC(C)CCCC(C)CCCC(C)C)O2 (centres undefined)", "discrete label": "inactive"}
{"compound": "CC(=O)O[C@@H]1CC2C(C)(C)[C@H](O)C=C[C@]2(C)C2CC[C@]3(C)C(=CC(=O)O[C@H]3c3ccoc3)[C@@]21C (some centres undefined)", "discrete label": "inactive"}
{"compound": "CC(CCC(=O)O)[C@H]1CCC2C3C(=O)C[C@@H]4CC(=O)CC[C@]4(C)C3CC(=O)[C@@]21C (some centres undefined)", "discrete label": "inactive"}
{"compound": "CC(=O)c1ccc(O)c(CC=C(C)C)c1", "discrete label": "inactive"}
{"compound": "CN(C)[C@@H]1C(=O)C(C(=O)NCN2CCCC2)=C(O)[C@@]2(O)C(=O)C3=C(O)c4c(O)cccc4[C@@](C)(O)[C@H]3C[C@@H]12", "discrete label": "inactive"}
{"compound": "OC[C@H]1O[C@@](CO)(O[C@@H]2O[C@H](CO)[C@@H](O)[C@H](O)[C@H]2O)[C@@H](O[C@@H]2O[C@H](CO)[C@@H](O)[C@H](O)[C@H]2O)[C@@H]1O", "discrete label": "inactive"}
{"compound": "Cc1cc(=O)oc2cc(O)c(O)cc12", "discrete label": "inactive"}
{"compound": "CC12CCC3C(CC3(C)C)C(C)(CCC1=O)O2 (centres undefined)", "discrete label": "inactive"}
{"compound": "Cc1cc(=O)oc2cc(O)cc(O)c12", "discrete label": "inactive"}
{"compound": "CC(=O)Nc1ccc(S(=O)(=O)Nc2onc(C)c2C)cc1", "discrete label": "inactive"}
{"compound": "COc1cc(C(C)=O)cc(OC)c1O", "discrete label": "inactive"}
{"compound": "C/C1=C/CC(C)(C)/C=C/C/C(C)=C/CC1", "discrete label": "inactive"}
{"compound": "CC(C)=CC1C(C(=O)O)C1(C)C (centres undefined)", "discrete label": "inactive"}
{"compound": "C=C1c2cccc(O)c2C(O)=C2C(=O)[C@]3(O)C(O)=C(C(N)=O)C(=O)[C@@H](N(C)C)[C@@H]3[C@@H](O)[C@H]12", "discrete label": "inactive"}
{"compound": "CCOC(=O)[C@H](CCc1ccccc1)N[C@@H](C)C(=O)N1CCC[C@H]1C(=O)O", "discrete label": "inactive"}
{"compound": "CC[N+](C)(C)c1cccc(O)c1", "discrete label": "inactive"}
{"compound": "CC(=O)O[C@H]1CC[C@@]2(C)C(C[C@@H](OC(C)=O)[C@@]3(C)C4=CC(=O)O[C@@H](c5ccoc5)[C@]4(C)CCC23)C1(C)C (some centres undefined)", "discrete label": "inactive"}
{"compound": "CN[C@@H]1[C@H](O)[C@H](NC)[C@H]2O[C@@]3(O)C(=O)C[C@@H](C)O[C@H]3O[C@@H]2[C@H]1O", "discrete label": "inactive"}
{"compound": "CC(C)c1ccc2c(c1)CCC1[C@](C)(CN)CCC[C@]21C (some centres undefined)", "discrete label": "inactive"}
{"compound": "Cc1cc(=O)[nH]c(=S)[nH]1", "discrete label": "inactive"}
{"compound": "CC(=O)O[C@H]1CCC2(C)C3=C(CCC2C1(C)C)[C@]1(C)CCC(C(C)CCC=C(C)C)[C@@]1(C)CC3 (some centres undefined)", "discrete label": "inactive"}
{"compound": "CNNC", "discrete label": "inactive"}
